// data source = ChEMBL document CHEMBL3988442

System: Wolbachia pipientis
assay-overview: Anti-Wolbachia Cell-Based Screen
Format: functional
Set-up: scale not given: in the data most compounds retested in dose-response had high values
conditions: 5 µM
The whole screen tested about 48,000 compounds, of which about 13,000 (27%) showed an effect of 50% or more. The list shows a part of the results.
# Percent Effect per entry
Report only the number, with the unit % understood.

Example compounds with recorded Percent Effect:
>  <compound>
CN(C)C(CNC(=O)OCC(F)(F)F)c1ccsc1 (configuration not stated)

>  <Percent Effect (%)>
23.12

$$$$
>  <compound>
COCCOC1CCN(C(C(=O)O)c2ccc(OC)c(F)c2)CC1 (configuration not stated)

>  <Percent Effect (%)>
107.6

$$$$

Problem: So what does the record say about Percent Effect for O=C(Cc1ccc(O)cc1)N1CCCC(O)(CN2CCOCC2)CC1 (configuration not stated) ?
Result: 136.3

Problem: Which Percent Effect is listed for CC(C)CN1Cc2cccc(NC(=O)Cc3ccon3)c2C1 ?
Result: -9.701

Problem: What does the record list as Percent Effect for O=C(Cc1cccc(O)c1)N1CCC2(CC1)c1ccccc1CC2O (configuration not stated) ?
Result: -3.302

Problem: Returns the measured Percent Effect for the input compound. Input: CC1CN(S(=O)(=O)c2ccc(F)cc2F)c2cccnc2O1 (configuration not stated)
Result: -5.201

Problem: Name the recorded Percent Effect for O=C(O)C(c1ccc2c(c1)OCO2)N1CCCCCC1 (configuration not stated) .
Result: 23.77

Problem: Dear colleague, I am looking for the recorded Percent Effect of the following compound: Oc1ccccc1CN1CCC(n2cc(-c3ccc(F)cc3)nn2)CC1
Result: -4.662

Problem: Suppose we examine the compound Cc1nc(C2CCCN(C(=O)CCCOc3cccc(F)c3)C2)no1 (configuration not stated) ; what Percent Effect value has been reported?
Result: -2.46

====

System: Wolbachia pipientis
assay-overview: Anti-Wolbachia Cell-Based Screen
Assay type: functional
Set-up: scale not given: in the data most compounds retested in dose-response had high values
conditions: 5 µM
About 13,000 (27%) of roughly 48,000 compounds showed an effect of 50% or more. The list shows a part of the results.
Label key: 1 means Percent Effect under 10%; 0 means Percent Effect of 10% or more.

See these solved cases before continuing.
>  <compound>
Cc1nonc1NC(=O)c1ccc(F)c(COCC2CC2)c1

>  <classification>
1

$$$$
>  <compound>
COCC(=O)N1CCCC1c1cccc(C)c1C (configuration not stated)

>  <classification>
1

$$$$

Problem: Record CN(Cc1cscn1)C1CCN(C(=O)OC(C)(C)C)CC1 : is its Percent Effect strictly below 10%?
Result: 1

Problem: Is it true that Percent Effect reported for Cc1nccn1-c1ccc(N2CCC(NC(C)C(C)C)CC2)cc1 (configuration not stated) is less than 10%?
Result: 0

Problem: Threshold test, Percent Effect < 10%: O=C(Cc1ccccc1F)N1CCCCC1c1ccn2ccnc2n1 (configuration not stated)
Result: 0

Problem: Is 10% strictly greater than the compound's reported Percent Effect? compound: Cn1c(C(N)=O)cc2c1CN(C(=O)C1CCCN(C3CCCC3)C1)CC2 (configuration not stated)
Result: 1

Problem: Report whether reported Percent Effect is lower than 10% (strictly) for COc1ccc(Cl)cc1CS(=O)(=O)CC(=O)N(C)Cc1ccccc1F
Result: 1

====

Test system: Wolbachia pipientis
assay-overview: Anti-Wolbachia Cell-Based Screen
Type: functional
Parameters: scale not given: in the data most compounds retested in dose-response had high values
conditions: 5 µM
About 13,000 (27%) of roughly 48,000 compounds showed an effect of 50% or more. Some of the results follow.
Parameter: Percent Effect. Scope: all listed entries.
Record the value in %, omitting the unit from your answer.

Recorded Percent Effect, per entry:
>  <compound>
CCCC(O)CN1CC(C)(C)CN(C(=O)c2ccc(SC)cc2)CC1=O (stereo unspecified)

>  <endpoint-unit>
%

>  <Percent Effect>
118.8

$$$$
>  <compound>
CC(C)(C)C(=O)NCCc1ccn(-c2ccccc2)n1

>  <endpoint-unit>
%

>  <Percent Effect>
8.286

$$$$
>  <compound>
CC(C)(C)C(=O)NCCC(=O)NCCc1ccn(-c2ccccc2)n1

>  <endpoint-unit>
%

>  <Percent Effect>
101.3

$$$$
>  <compound>
CC(C1CCN(Cc2cccc(OC(F)F)c2)CC1)N1CCOCC1 (stereo unspecified)

>  <endpoint-unit>
%

>  <Percent Effect>
4.738

$$$$

Problem: Requested read-out: Percent Effect. Entry: CC(C)CN1CC2(CCN(C(=O)C(O)c3ccccc3Cl)CC2)CC1=O (stereo unspecified)
Result: -2.667

Problem: Can you share its Percent Effect? I mean this compound: CCCC(O)CN1CC(C)(C)CN(C(=O)c2ccccc2)CC1=O (stereo unspecified)
Result: 122.4

Problem: Need Percent Effect of CC(C)(CNC(=O)NCCOc1cccc(F)c1)C(N)=O , thanks.
Result: -10.47

Problem: Request the reported Percent Effect associated with CCNC(=O)CCS(=O)(=O)Cc1ccn(-c2cccc(F)c2)n1
Result: -7.781

Problem: Please look up its Percent Effect: COc1cccc(-n2nnc(C(=O)N3CCNC(=O)C3)c2C)c1
Result: 2.603

Problem: For the compound CC1(C)CN(CC(O)C(C)(C)C)C(=O)CN(C(=O)c2ccccc2)C1 (stereo unspecified) , what Percent Effect is on record?
Result: 117.8

Problem: Quick one: Percent Effect of CC(C)(CNC(=O)NCCc1ccn(-c2ccccc2)n1)C(N)=O ?
Result: 145.8
